# Assay Text: chemical genetic growth profiling, strain panel (AID 1159580);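 further: tested at 20 µM; growth read once vehicle control cultures reached saturation at 30 °C; 1 = growth at the plate median or of vehicle wells; lower values mean less growth of the strain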
# Stated Conditions: S. cerevisiae deletion strains, growth OD, strain TSCII
The whole screen tested about 5,500 compounds, of which about 2,000 (36%) were called active. Another 18% or so got no clear call; they are omitted. No stated cut-off is given here; in the data, active means normalized growth mostly below about 0.91 (no sharp cut-off); inconclusive means no clear call, values can overlap the other calls; inactive means mostly above about 0.92. This is one part of the list.
Classes used: class 1 for active, class 0 for inactive

smiles_data=N#CSCC(=O)c1ccccc1 discrete_label="class 1"
smiles_data=CSc1n[nH]c(-c2cc(C(C)(C)C)oc2C)c1C#N discrete_label="class 0"
smiles_data=CC(=O)c1ccc(Cl)c(N=Cc2cc(Cl)cc(Cl)c2O)c1 discrete_label="class 0"

###

# Assay Text: chemical genetic growth profiling, strain panel (AID 1159580);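 further: tested at 20 µM; growth read once vehicle control cultures reached saturation at 30 °C; 1 = growth at the plate median or of vehicle wells; lower values mean less growth of the strain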
# Stated Conditions: S. cerevisiae deletion strains, growth OD, locus YNL322C, strain KRE1, active compounds read low
Hit rate of the full screen: of about 5,500 compounds, about 2,000 (36%) were called active. Roughly 18% stayed inconclusive and do not appear here. This is one part of the list.
Outcome Measure: normalized growth

compound="FC(F)(F)c1cc(-c2noc(C3CCc4ccccc4O3)n2)cc(C(F)(F)F)c1 (stereo not given)" recorded_result=0.985
compound="O=P1(N(CCCl)CCCl)NCCCO1 (stereo not given)" recorded_result=0.996
compound="CC(=O)O[C@@H]1C=C[C@@]2(C)C(C[C@@H](OC(C)=O)[C@@]3(C)C4=CC(=O)O[C@@H](c5ccoc5)[C@]4(C)CCC23)C1(C)C (stereo not given in full)" recorded_result=1.02
compound=C[C@@H](NC(=O)/C(C#N)=C/c1ccc(O)c(O)c1)c1ccccc1 recorded_result=1.01
compound="CC(=O)O[C@@H]1CC2C(C)(C)[C@H](O)C=C[C@]2(C)C2CC[C@]3(C)C(=CC(=O)O[C@H]3c3ccoc3)[C@@]21C (stereo not given in full)" recorded_result=1.01
compound=CCCc1cc(=O)oc2c1c(C)nn2-c1ccccc1 recorded_result=0.944
compound="CC(=O)OC1CCC2(C)C(CC(OC(C)=O)C3(C)C4=CC(=O)OC(c5ccoc5)C4(C)CCC23)C1(C)C (stereo not given)" recorded_result=0.992
compound=CC(=O)Nc1ccc(S(=O)(=O)Nc2c(C)n(C)n(-c3ccccc3)c2=O)cc1 recorded_result=1.01
compound=CCCCCCc1cc2c(C)cc(=O)oc2cc1O recorded_result=0.989
compound=CC[N+](C)(C)c1cccc(O)c1 recorded_result=0.993
